- Tested on: kochia (Kochia scoparia)
- PROTOCOL: Test C pre-/postemergence: kochia
- Assay type: in vivo
- COND: Postemergence, 250 g ai/ha; scale 0 to 100 (0 no effect, 100 complete control)

# COMPOUND, Plant response rating, Kochia
records = [
    ("CCCc1nn(-c2ccc(C(F)(F)F)cc2)nc1Oc1ccnc(C(F)(F)F)c1 [Compound 170]", 90),
    ("CCCc1nn(-c2ccc(F)c(F)c2)nc1Oc1ccnc(C(F)(F)F)c1 [Compound 172]", 90),
    ("CCCc1nn(-c2ccc(F)cc2F)nc1Oc1ccnc(C(F)(F)F)c1 [Compound 179]", 90),
    ("CCOc1nn(-c2ccc(F)cc2)nc1Cc1ccnc(C(F)(F)F)c1 [Compound 196]", 90),
    ("CCc1nn(-c2ccc(C(F)(F)F)cc2)nc1Oc1ccnc(C(F)(F)F)c1 [Compound 169]", 90),
    ("CCc1nn(-c2ccc(C(F)(F)F)c(F)c2)nc1Oc1ccnc(C(F)(F)F)c1 [Compound 183]", 95),
]
